Tested on: Huh-7
assay overview: Cytotoxicity against human HuH7 cells
Format: cell-based
metric name: CC50 (µM)
Reply numerically in µM, unit not repeated.

Specify the recorded CC50 for CCCC(NC(=O)C1N(C(=O)[C@@H](NC(=O)NC(C)(C)C)C(C)(C)C)CC12Cc1ccccc1C2)C(=O)C(=O)NC1CC1 (some centres not stated) , system: Huh-7.
27

Specify the recorded CC50 for CCCC(NC(=O)C1N(C(=O)[C@@H](NC(=O)C2CCCCC2)C(C)(C)C)CC12Cc1ccccc1C2)C(=O)C(=O)NC1CC1 (some centres not stated) , system: Huh-7.
10

Specify the recorded CC50 for CC(C)(C)[C@H](NC(=O)NC1CCCCC1)C(=O)N1CC2(Cc3ccccc3C2)C1C(=O)NC(CC1CCC1)C(=O)C(=O)NC1CC1 (some centres not stated) , system: Huh-7.
5.5

====

system: Neutrophil elastase (Homo sapiens)
Sequence (P08246 whole entry): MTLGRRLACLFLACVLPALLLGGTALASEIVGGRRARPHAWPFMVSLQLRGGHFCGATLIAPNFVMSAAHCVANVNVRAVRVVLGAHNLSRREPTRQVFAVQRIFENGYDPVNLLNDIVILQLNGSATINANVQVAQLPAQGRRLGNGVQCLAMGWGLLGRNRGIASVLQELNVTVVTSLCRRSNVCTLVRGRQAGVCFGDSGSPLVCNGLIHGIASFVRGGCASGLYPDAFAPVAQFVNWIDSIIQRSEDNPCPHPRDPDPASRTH
assay overview: Inhibition of human neutrophil elastase
metric name: IC50

Specify the recorded IC50 for CC[C@@H]1C[C@]1(NC(=O)[C@@H]1C[C@@H]2CN1C(=O)[C@H](C(C)(C)C)NC(=O)OCC(C)(C)CCCCc1cccc3c1CN(C3)C(=O)O2)C(=O)NS(=O)(=O)C1CC1 , system: Neutrophil elastase (Homo sapiens).
> 100 µM

Specify the recorded IC50 for CCCC(NC(=O)C1N(C(=O)[C@@H](NC(=O)[C@@H](NC(=O)c2cnccn2)C2CCCCC2)C(C)(C)C)CC12CCCCC2)C(=O)C(=O)NC1CC1 (stereo partly drawn) , system: Neutrophil elastase (Homo sapiens).
7.8 µM

Specify the recorded IC50 for CC(C)(C)NC(=O)N[C@H](C(=O)N1C[C@H]2[C@@H]([C@H]1C(=O)NC(CC1CCC1)C(=O)C(N)=O)C2(C)C)C(C)(C)C (stereo partly drawn) [BOCEPREVIR] , system: Neutrophil elastase (Homo sapiens).
≥ 100 µM

====

Assignment: determine reported CC50 for the given molecules.
Test system: Vero
assay overview: Cytotoxicity against african green monkey Vero cells
Type: cell-based
condition description: chlorocebus sabaeus

Assign CC50 to the following record: CC(C)(C)[C@H](NC(=O)[C@@H](NC(=O)c1cnccn1)C1CCCCC1)C(=O)N1CC2(Cc3ccccc3C2)C1C(=O)NC(CC1CC1)C(=O)C(=O)NC1CC1 (stereo partly specified)
> 100 µM

Assign CC50 to the following record: CC(C)(C)NC(=O)N[C@H](C(=O)N1C[C@H]2[C@@H]([C@H]1C(=O)NC(CC1CCC1)C(=O)C(N)=O)C2(C)C)C(C)(C)C (stereo partly specified)
> 100 µM

Assign CC50 to the following record: CCCC(NC(=O)C1N(C(=O)[C@@H](NC(=O)[C@@H](NC(=O)c2cnccn2)C2CCCCC2)C(C)(C)C)CC12CCCCC2)C(=O)C(=O)NC1CC1 (stereo partly specified)
27 µM

Assign CC50 to the following record: C=CCNC(=O)C(=O)C(CCC)NC(=O)C1CCN1C(=O)[C@@H](NC(=O)[C@@H](NC(=O)c1cnccn1)C1CCCCC1)C(C)(C)C (stereo partly specified)
> 100 µM

Assign CC50 to the following record: CCCC(NC(=O)C1N(C(=O)[C@@H](NC(=O)[C@@H](NC(=O)c2cnccn2)C2CCCCC2)C(C)(C)C)CC12Cc1ccccc1C2)C(=O)C(=O)NC1CC1 (stereo partly specified)
> 100 µM

Assign CC50 to the following record: CCCC(NC(=O)C1N(C(=O)[C@@H](NC(=O)NC2CCCC2)C(C)(C)C)CC12Cc1ccccc1C2)C(=O)C(=O)NC1CC1 (stereo partly specified)
95 µM

====

Assignment: determine reported pIC50 for the given molecules.
system: Cathepsin S (Homo sapiens)
Sequence (P25774 whole entry): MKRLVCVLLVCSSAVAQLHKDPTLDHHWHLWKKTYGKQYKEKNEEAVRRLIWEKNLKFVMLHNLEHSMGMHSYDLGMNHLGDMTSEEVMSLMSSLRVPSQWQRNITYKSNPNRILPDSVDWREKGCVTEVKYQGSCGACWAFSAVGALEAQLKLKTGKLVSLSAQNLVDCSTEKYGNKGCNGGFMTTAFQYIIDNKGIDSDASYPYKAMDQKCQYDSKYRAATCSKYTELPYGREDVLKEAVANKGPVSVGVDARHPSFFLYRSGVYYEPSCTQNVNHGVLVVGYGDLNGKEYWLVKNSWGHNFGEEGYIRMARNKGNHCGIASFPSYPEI
pIC50: −log10 of the molar value.

Assign pIC50 to the following record: CCCC(NC(=O)C1N(C(=O)[C@@H](NC(=O)[C@@H](NC(=O)c2cnccn2)C2CCCCC2)C(C)(C)C)CC12CCCCC2)C(=O)C(=O)NC1CC1 (some centres undefined)
< 4.00

Assign pIC50 to the following record: CC[C@@H]1C[C@]1(NC(=O)[C@@H]1C[C@@H]2CN1C(=O)[C@H](C(C)(C)C)NC(=O)OCC(C)(C)CCCCc1cccc3c1CN(C3)C(=O)O2)C(=O)NS(=O)(=O)C1CC1
4.11

Assign pIC50 to the following record: CC(C)(C)NC(=O)N[C@H](C(=O)N1C[C@H]2[C@@H]([C@H]1C(=O)NC(CC1CCC1)C(=O)C(N)=O)C2(C)C)C(C)(C)C (some centres undefined) [BOCEPREVIR]
< 4.00

Assign pIC50 to the following record: CCC[C@H](NC(=O)[C@@H]1[C@H]2CCC[C@H]2CN1C(=O)[C@@H](NC(=O)[C@@H](NC(=O)c1cnccn1)C1CCCCC1)C(C)(C)C)C(=O)C(=O)NC1CC1
< 4.00

====

system: UniProtKB P00734
assay overview: Inhibition of human thrombin
metric name: IC90

Specify the recorded IC90 for CC[C@@H]1C[C@]1(NC(=O)[C@@H]1C[C@@H]2CN1C(=O)[C@H](C(C)(C)C)NC(=O)OCC(C)(C)CCCCc1cccc3c1CN(C3)C(=O)O2)C(=O)NS(=O)(=O)C1CC1 , system: UniProtKB P00734.
> 100000 nM

Specify the recorded IC90 for CCC[C@H](NC(=O)[C@@H]1[C@H]2CCC[C@H]2CN1C(=O)[C@@H](NC(=O)[C@@H](NC(=O)c1cnccn1)C1CCCCC1)C(C)(C)C)C(=O)C(=O)NC1CC1 , system: UniProtKB P00734.
< 1000 nM

Specify the recorded IC90 for CCCC(NC(=O)C1N(C(=O)[C@@H](NC(=O)[C@@H](NC(=O)c2cnccn2)C2CCCCC2)C(C)(C)C)CC12CCCCC2)C(=O)C(=O)NC1CC1 (some centres undefined) , system: UniProtKB P00734.
< 1700 nM

Specify the recorded IC90 for CC(C)(C)NC(=O)N[C@H](C(=O)N1C[C@H]2[C@@H]([C@H]1C(=O)NC(CC1CCC1)C(=O)C(N)=O)C2(C)C)C(C)(C)C (some centres undefined) [BOCEPREVIR] , system: UniProtKB P00734.
< 1400 nM

====

Assignment: determine reported CC50 for the given molecules.
Tested on: Huh-7
assay overview: Cytotoxicity against human HuH7 cells
Format: cell-based

Assign CC50 to the following record: CCCC(NC(=O)C1N(C(=O)[C@@H](NC(=O)[C@@H](NC(=O)c2cnccn2)C2CCCCC2)C(C)(C)C)CC12CCCCC2)C(=O)C(=O)NC1CC1 (stereo partly drawn)
> 10 µM

Assign CC50 to the following record: CCCC(NC(=O)C1N(C(=O)[C@@H](NC(=O)NC2CCCC2)C(C)(C)C)CC12Cc1ccccc1C2)C(=O)C(=O)NC1CC1 (stereo partly drawn)
> 10 µM

Assign CC50 to the following record: CC(C)(C)NC(=O)N[C@H](C(=O)N1C[C@H]2[C@@H]([C@H]1C(=O)NC(CC1CCC1)C(=O)C(N)=O)C2(C)C)C(C)(C)C (stereo partly drawn)
> 10 µM

====

Assignment: determine reported EC50 for the given compounds.
System: Hepatitis C virus
assay overview: Antiviral activity against Hepatitis C virus infected in human HuH7 cells assessed as viral RNA replication
Assay type: functional, organism-based, Hepacivirus hominis
condition description: Huh-7

Assign EC50 to the following record: CCCC(NC(=O)C1CCN1C(=O)[C@@H](NC(=O)[C@@H](NC(=O)c1cnccn1)C1CCCCC1)C(C)(C)C)C(=O)C(=O)NCCOC (stereo partly drawn)
> 10 µM

Assign EC50 to the following record: CCCC(NC(=O)C1N(C(=O)[C@@H](NC(=O)Nc2ccc(OC)cc2)C(C)(C)C)CC12Cc1ccccc1C2)C(=O)C(=O)NC1CC1 (stereo partly drawn)
> 10 µM

Assign EC50 to the following record: CCCC(NC(=O)C1N(C(=O)[C@@H](NC(=O)[C@@H](NC(=O)c2cnccn2)C2CCCCC2)C(C)(C)C)CC12Cc1ccccc1C2)C(=O)C(=O)NC1CC1 (stereo partly drawn)
> 10 µM

====

System: Hepatitis C virus
assay overview: Antiviral activity against Hepatitis C virus infected in human HuH7 cells assessed as viral RNA replication
Assay type: functional, organism-based, Hepacivirus hominis
condition description: Huh-7
metric name: EC50 (µM)
Reply numerically in µM, unit not repeated.

Assign EC50 to the following record: CC(C)(C)NC(=O)N[C@H](C(=O)N1C[C@H]2[C@@H]([C@H]1C(=O)NC(CC1CCC1)C(=O)C(N)=O)C2(C)C)C(C)(C)C (some centres undefined)
0.01

Assign EC50 to the following record: CCCC(NC(=O)C1N(C(=O)[C@@H](NC(=O)[C@@H](NC(=O)c2cnccn2)C2CCCCC2)C(C)(C)C)CC12CCCCC2)C(=O)C(=O)NCCF (some centres undefined)
5.4

====

Tested on: Hepatitis C virus
assay overview: Inhibition of Hepatitis C virus genotype 1b NS3/4A protease R155K mutant
Set-up: species or system Hepatitis C virus subtype 1b
metric name: EC50 (µM)
Reply numerically in µM, unit not repeated.

Assign EC50 to the following record: CCC[C@H](NC(=O)[C@@H]1[C@H]2CCC[C@H]2CN1C(=O)[C@@H](NC(=O)[C@@H](NC(=O)c1cnccn1)C1CCCCC1)C(C)(C)C)C(=O)C(=O)NC1CC1
0.8

Assign EC50 to the following record: CCCC(NC(=O)C1N(C(=O)[C@@H](NC(=O)[C@@H](NC(=O)c2cnccn2)C2CCCCC2)C(C)(C)C)CC12CCCCC2)C(=O)C(=O)NC1CC1 (stereo partly drawn)
5.5
